- assayed system: T1, human programmed cell death protein 1 (hPD-1) C93S (aa 24-167) (Homo sapiens, UniProt Q15116, C93S)
- T1 construct: made as a fusion with a TEV site and human Fc; the Fc was cut off with TEV protease; source: Expi293F, purified (Protein A, TEV cleavage of Fc, SEC; monomer fractions); not shown: Fc (human), C-terminal, cleaved
- T1 sequence (Q15116 24-167 C93S): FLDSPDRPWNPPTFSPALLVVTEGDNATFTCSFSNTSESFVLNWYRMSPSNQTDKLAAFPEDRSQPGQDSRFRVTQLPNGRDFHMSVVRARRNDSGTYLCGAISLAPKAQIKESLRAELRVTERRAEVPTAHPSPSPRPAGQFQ
- assay method text: SPR; Carterra LSA; Fab from the ammonium sulfate precipitate of the culture supernatant immobilised on a NiHC200M chip; hPD-1 (1-1024 nM) or mPD-1-Fc (4-1024 nM) as analyte, fourfold dilution series, no regeneration; HBS-EP pH 7.4, 25 °C; medians over the spots of a construct, KD = koff/kon
- test context: one partner purified
Measured kon accompanies every entry in the list below.

# binder, kon [M⁻¹ s⁻¹]
data = [
    ("toripalimab Fab H.N61Y (Fab, V domains shown, heavy chain of Sm3 with this change; numbers count from the chain's first residue; as the light chain of Sm3; source: Brevibacillus, culture supernatant (ammonium sulfate precipitate); not shown: 6xHis, C-terminal, kept; 6xHN, C-terminal, kept) VH: QGQLVQSGAEVKKPGASVKVSCKASGYTFTDYEMHWVRQAPIHGLEWIGVIESETGGTAYYQKFKGRVTITADKSTSTAYMELSSLRSEDTAVYYCAREGITTVATTYYWYFDVWGQGTTVTVSS VL: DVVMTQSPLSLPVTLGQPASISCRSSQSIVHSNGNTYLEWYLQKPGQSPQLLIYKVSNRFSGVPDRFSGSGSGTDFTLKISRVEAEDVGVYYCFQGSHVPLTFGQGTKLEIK", 64200),
    ("toripalimab Fab L.P100Y (Fab, V domains shown, as the heavy chain of Sm3; light chain of Sm3 with this change; numbers count from the chain's first residue; source: Brevibacillus, culture supernatant (ammonium sulfate precipitate); not shown: 6xHis, C-terminal, kept; 6xHN, C-terminal, kept) VH: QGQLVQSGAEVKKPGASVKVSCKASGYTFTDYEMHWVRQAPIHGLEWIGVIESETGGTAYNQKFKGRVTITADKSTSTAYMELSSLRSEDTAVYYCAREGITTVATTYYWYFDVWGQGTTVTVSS VL: DVVMTQSPLSLPVTLGQPASISCRSSQSIVHSNGNTYLEWYLQKPGQSPQLLIYKVSNRFSGVPDRFSGSGSGTDFTLKISRVEAEDVGVYYCFQGSHVYLTFGQGTKLEIK", 28200),
]

FYI, the data here is from paper PMC10663500.
